Source listed as paper PMC3349722.

target: ERβ (Homo sapiens); test: Yeast two-hybrid system-based assay (ERβ LBD/SRC1, α-galactosidase), agonist and antagonist mode; assay type: cell-based; settings: antagonist assay; read-out: IC50 on ERβ (antagonistic activity)
Sequence (Q92731 248-510): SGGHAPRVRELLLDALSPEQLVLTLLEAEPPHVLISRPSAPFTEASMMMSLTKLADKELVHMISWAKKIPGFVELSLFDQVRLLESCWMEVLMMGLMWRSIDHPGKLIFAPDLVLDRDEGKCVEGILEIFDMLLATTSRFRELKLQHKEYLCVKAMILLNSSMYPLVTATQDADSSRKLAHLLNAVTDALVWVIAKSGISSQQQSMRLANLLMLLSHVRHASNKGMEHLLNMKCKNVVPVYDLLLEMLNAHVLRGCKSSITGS

- molecule: "CCC(C)n1ncn(-c2ccc(N3CCN(c4ccc(OCC5COC(Cn6cncn6)(c6ccc(Cl)cc6Cl)O5)cc4)CC3)cc2)c1=O (stereo not shown)"
  endpoint.unit: "nM"
  IC50: 280

====

molecular target: human recombinant DPP-IV (Homo sapiens, UniProt P27487); construct: purchased Biomol; test: Dipeptidyl peptidase-IV inhibition assay (DPP-IV Drug Discovery Kit, fluorimetric); format: biochemical; details: test concentration not given
Sequence (P27487 whole entry): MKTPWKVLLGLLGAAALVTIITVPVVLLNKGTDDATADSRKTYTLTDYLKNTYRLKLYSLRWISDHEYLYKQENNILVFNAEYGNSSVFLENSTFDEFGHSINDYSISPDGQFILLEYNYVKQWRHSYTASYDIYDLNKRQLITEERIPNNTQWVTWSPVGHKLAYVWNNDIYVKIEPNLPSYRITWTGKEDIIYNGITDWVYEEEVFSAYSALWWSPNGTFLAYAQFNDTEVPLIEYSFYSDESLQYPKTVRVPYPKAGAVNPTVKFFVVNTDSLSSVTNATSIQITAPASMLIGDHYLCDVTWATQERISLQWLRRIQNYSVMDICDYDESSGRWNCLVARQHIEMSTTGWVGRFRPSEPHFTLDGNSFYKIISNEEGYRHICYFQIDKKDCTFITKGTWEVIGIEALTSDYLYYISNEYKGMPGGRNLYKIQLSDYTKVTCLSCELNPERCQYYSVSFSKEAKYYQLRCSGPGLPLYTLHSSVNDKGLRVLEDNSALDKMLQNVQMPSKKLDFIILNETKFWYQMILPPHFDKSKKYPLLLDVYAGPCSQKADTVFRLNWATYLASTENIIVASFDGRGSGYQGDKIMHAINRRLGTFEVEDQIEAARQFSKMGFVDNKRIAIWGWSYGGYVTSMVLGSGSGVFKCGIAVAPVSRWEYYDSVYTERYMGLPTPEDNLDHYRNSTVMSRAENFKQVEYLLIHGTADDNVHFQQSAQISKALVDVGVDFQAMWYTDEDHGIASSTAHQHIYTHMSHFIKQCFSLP
Measured Inhibition Ratio (%) to DPP-IV of individual entries

- compound: "COC(=O)C1=C(C)NC(C)=C(C(=O)OCCN(C)Cc2ccccc2)C1c1cccc([N+](=O)[O-])c1 (stereo not shown) [Nicardipine]"
  endpoint.unit: "%"
  Inhibition Ratio (%) to DPP-IV: 21.24
- compound: "Cc1ccc(C)c(OCCCC(C)(C)C(=O)O)c1 [Gemfibrozil]"
  endpoint.unit: "%"
  Inhibition Ratio (%) to DPP-IV: 17.35
- compound: "CC[C@H](C)C(=O)O[C@H]1C[C@@H](C)C=C2C=C[C@H](C)[C@H](CC[C@@H]3C[C@@H](O)CC(=O)O3)[C@H]21 [Lovastatin]"
  endpoint.unit: "%"
  Inhibition Ratio (%) to DPP-IV: 9.49
- compound: "CC(C)(O)c1ccccc1CC[C@@H](SCC1(CC(=O)O)CC1)c1cccc(/C=C/c2ccc3ccc(Cl)cc3n2)c1 [Montelukast]"
  endpoint.unit: "%"
  Inhibition Ratio (%) to DPP-IV: 49.7
- compound: "CS(=O)(=O)CCNCc1ccc(-c2ccc3ncnc(Nc4ccc(OCc5cccc(F)c5)c(Cl)c4)c3c2)o1 [Lapatinib]"
  endpoint.unit: "%"
  Inhibition Ratio (%) to DPP-IV: 39.64
- compound: "NC(=O)N1c2ccccc2C=Cc2ccccc21 [Carbamazepine]"
  endpoint.unit: "%"
  Inhibition Ratio (%) to DPP-IV: 19.67
- compound: "CCc1ccc(CCOc2ccc(CC3SC(=O)NC3=O)cc2)nc1 (stereo not shown) [Pioglitazone]"
  endpoint.unit: "%"
  Inhibition Ratio (%) to DPP-IV: 18.63
